Entry source: patent EP3102204B1

Recorded Ki by entry
Target: σ-1 (Rattus norvegicus, UniProt Q9R0C9)
Sequence (Q9R0C9 whole entry): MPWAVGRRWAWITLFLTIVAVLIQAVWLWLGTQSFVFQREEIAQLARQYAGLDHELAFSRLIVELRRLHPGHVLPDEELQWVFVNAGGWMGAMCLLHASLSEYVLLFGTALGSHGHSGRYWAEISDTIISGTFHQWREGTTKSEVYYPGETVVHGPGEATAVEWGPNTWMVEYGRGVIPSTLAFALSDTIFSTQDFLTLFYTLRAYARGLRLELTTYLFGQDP
Assay: σ receptor assay: σ-1 binding with [3H](+)-pentazocine
Details: rat brain homogenates; CM table
Units required after the number.

molecule="Fc1ccc(-c2cn(CCCCN3CCN(c4ccc(F)cc4)CC3)c3ccccc23)cc1 [CM 350]" endpoint_name=Ki result="1200 nM"

Continue with the molecule presented below.
Noted for Fc1ccc(-c2cn(CCCCN3CCN(C4CCCCC4)CC3)c3ccccc23)cc1 [CM 349] : its Ki reads 90.9 nM

* * *

Molecular target: serotonin transporters
Experiment: Non-σ competition binding assay, [3H]paroxetine
Conditions: rat brain homogenates; read-out: SERT Ki
ENDPOINT NAME: pKi
In simple prose, pKi is minus the logarithm base ten of a concentration in moles per litre.

Noted for "S=c1sc2ccccc2n1CCCCN1CCN(C2CCCCC2)CC1" : its pKi reads 5.85
